Listed here are molecules together with their documented hERG current change (%, negative = inhibition) at 10uM.
TARGET_DESC: human ether-à-go-go-related gene (hERG) potassium channel (human, UniProt Q12809)
Sequence (Q12809 whole entry, looked up): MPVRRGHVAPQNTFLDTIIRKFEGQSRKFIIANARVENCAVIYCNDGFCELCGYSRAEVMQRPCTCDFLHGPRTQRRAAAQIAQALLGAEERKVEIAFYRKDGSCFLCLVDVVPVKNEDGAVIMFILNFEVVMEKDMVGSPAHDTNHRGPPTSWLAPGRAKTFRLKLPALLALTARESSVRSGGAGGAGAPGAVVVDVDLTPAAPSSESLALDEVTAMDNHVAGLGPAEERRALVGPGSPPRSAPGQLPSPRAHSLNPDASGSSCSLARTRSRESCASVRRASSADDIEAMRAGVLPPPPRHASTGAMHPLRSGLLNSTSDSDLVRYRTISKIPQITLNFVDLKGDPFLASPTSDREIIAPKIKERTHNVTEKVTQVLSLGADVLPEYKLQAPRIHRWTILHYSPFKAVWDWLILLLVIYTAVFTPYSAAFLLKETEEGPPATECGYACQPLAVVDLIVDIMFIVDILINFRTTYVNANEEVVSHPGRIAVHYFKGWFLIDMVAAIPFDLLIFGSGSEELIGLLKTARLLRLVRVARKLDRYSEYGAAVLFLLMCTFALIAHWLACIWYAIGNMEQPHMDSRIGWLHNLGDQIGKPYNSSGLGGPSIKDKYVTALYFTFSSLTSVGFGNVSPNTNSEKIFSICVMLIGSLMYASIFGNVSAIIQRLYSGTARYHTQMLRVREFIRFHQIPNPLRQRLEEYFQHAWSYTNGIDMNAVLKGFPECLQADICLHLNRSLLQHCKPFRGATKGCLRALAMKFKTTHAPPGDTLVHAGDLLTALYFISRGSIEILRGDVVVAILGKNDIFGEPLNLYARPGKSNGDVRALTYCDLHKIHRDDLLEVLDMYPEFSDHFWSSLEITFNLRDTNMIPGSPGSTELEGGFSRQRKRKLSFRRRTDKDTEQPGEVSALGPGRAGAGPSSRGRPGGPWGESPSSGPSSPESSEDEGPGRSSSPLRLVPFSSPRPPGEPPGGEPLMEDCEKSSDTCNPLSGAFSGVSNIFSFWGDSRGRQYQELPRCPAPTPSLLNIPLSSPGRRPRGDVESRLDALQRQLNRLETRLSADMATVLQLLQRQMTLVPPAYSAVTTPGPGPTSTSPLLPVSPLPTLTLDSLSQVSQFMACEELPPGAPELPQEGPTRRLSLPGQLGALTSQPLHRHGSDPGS
RUN_DESCRIPTION: primary screen, population patch clamp on CHO cells stably expressing hERG; higher = less effect of the substance
The whole screen tested about 310,000 compounds, of which about 14,000 (4.5%) showed an effect of 50% or more. Effects have a minus sign here. Shown is part of a subset that was picked to be rich in strong results.
Please answer in the form of a number followed by its unit of measurement.

// below: answered molecules
Can you look up the measured hERG current change (%, negative = inhibition) at 10uM of Cc1ccc(CS(=O)Cc2ccc(C(=O)NC3CCC(C)CC3)o2)cc1 (stereo not shown) for me? -51%

Can you look up the measured hERG current change (%, negative = inhibition) at 10uM of `CCCc1ccc(OCc2ccc(C(=O)N3CCN(c4ccccn4)CC3)o2)c(OC)c1` for me? -56.5%

Can you look up the measured hERG current change (%, negative = inhibition) at 10uM of Cc1cccc(N2CCN(C(=O)c3ccc(CS(=O)Cc4ccc(Cl)cc4)o3)CC2)c1C (stereo not shown) for me? -57%

Can you look up the measured hERG current change (%, negative = inhibition) at 10uM of Cc1cccc(N2CCN(C(=O)c3ccc(CS(=O)Cc4cccc(Cl)c4)o3)CC2)c1C (stereo not shown) for me? -13.5%

Can you look up the measured hERG current change (%, negative = inhibition) at 10uM of O=C(c1ccc(CS(=O)Cc2ccc(Cl)cc2)o1)N1CCN(c2ccccc2F)CC1 (stereo not shown) for me? -55.8%

Others:
Can you look up the measured hERG current change (%, negative = inhibition) at 10uM of `Cc1ccc(C(=O)NCCN2CCNC2=O)cc1` for me? 12.9%

Can you look up the measured hERG current change (%, negative = inhibition) at 10uM of Cc1ccc(C(OCC(O)CNCc2ccc(F)cc2)c2ccccc2)cc1.O=C(O)C(=O)O (stereo not shown) for me? -75.7%

Can you look up the measured hERG current change (%, negative = inhibition) at 10uM of `Cc1cc(S(=O)(=O)N2CCOCC2)ccc1NC(=O)c1ccc(F)cc1` for me? 1.32%

Can you look up the measured hERG current change (%, negative = inhibition) at 10uM of `CCOC(=O)C1CCN(C(=O)c2cc3c(=O)n4cccc(C)c4nc3s2)CC1` for me? -15.5%

Can you look up the measured hERG current change (%, negative = inhibition) at 10uM of Cc1ccc(Cl)cc1N1CCN(C(=O)c2ccc(CS(=O)Cc3ccc(Cl)cc3)o2)CC1 (stereo not shown) for me? 13.9%

###

TARGET_DESC: human ether-à-go-go-related gene (hERG) potassium channel (human);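 also: peak tail current of the secondary pulse compared with the same well before compound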
RUN_DESCRIPTION: primary screen, population patch clamp on CHO cells stably expressing hERG; higher = less effect of the substance
About 14,000 (4.5%) of roughly 310,000 compounds showed an effect of 50% or more. Effects have a minus sign here. The sample as a whole holds a higher share of strong results than the screen did.
MEASURE_NAME: hERG current change (%, negative = inhibition) at 10uM (%)
# number only, unit % dropped from output

Can you look up the measured hERG current change (%, negative = inhibition) at 10uM of CC1(C)Cc2c(cnn2-c2cccc(F)c2)C(NC(=O)Cn2cccn2)C1 (stereo not drawn) for me? -11.5

Can you look up the measured hERG current change (%, negative = inhibition) at 10uM of `Cc1ccc(S(=O)(=O)Nc2ccc(-c3nc4ccc(C)cc4s3)cc2)cc1` for me? 2.32

Can you look up the measured hERG current change (%, negative = inhibition) at 10uM of `O=C(CCN1CCN(Cc2ccccc2)CC1)Nc1cccc(Br)c1` for me? -63

Others:
Can you look up the measured hERG current change (%, negative = inhibition) at 10uM of Cc1ccc(-c2nn(-c3ccccc3)cc2C(=O)NCC2CCCO2)cc1 (stereo not drawn) for me? -25.8

Can you look up the measured hERG current change (%, negative = inhibition) at 10uM of COc1ccc(C2CC(c3cccs3)=NN2C(=O)CSc2nc(=O)n3ccc(C)cc3n2)cc1 (stereo not drawn) for me? -65.4

Can you look up the measured hERG current change (%, negative = inhibition) at 10uM of C=CCCC(=O)NC1CC(C)(C)Cc2c1cnn2-c1cccc(F)c1 (stereo not drawn) for me? -68.4

###

TARGET_DESC: human ether-à-go-go-related gene (hERG) potassium channel (human);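 also: peak tail current of the secondary pulse compared with the same well before compound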
RUN_DESCRIPTION: primary screen, population patch clamp on CHO cells stably expressing hERG; higher = less effect of the substance
In all, about 310,000 compounds went through this assay and about 14,000 (4.5%) showed an effect of 50% or more. The effect is printed as a negative number. This excerpt belongs to a sample that is enriched for strong results.
Tag: true if measured hERG current change (%, negative = inhibition) at 10uM is not below -20%, false if it is.

Given the entry `CCOC(=O)C1(CCOc2ccccc2)CCN(Cc2ccc3nonc3c2)CC1` , answer whether its hERG current change (%, negative = inhibition) at 10uM meets or surpasses -20%. true

Given the entry CC1(c2ccc(OC(F)F)cc2)NC(=O)N(CC(=O)Nc2ccc3c(c2)OCO3)C1=O (stereo not drawn) , answer whether its hERG current change (%, negative = inhibition) at 10uM meets or surpasses -20%. false

Given the entry `COc1cc(CN2CCN(C(=O)c3cccc4ccccc34)CC2)cc(OC)c1OC.O=C(O)C(=O)O` , answer whether its hERG current change (%, negative = inhibition) at 10uM meets or surpasses -20%. true

Given the entry `Cc1ccc2[nH]c3c(=O)n(CCCN4CCN(C)CC4)cnc3c2c1` , answer whether its hERG current change (%, negative = inhibition) at 10uM meets or surpasses -20%. false

Others:
Given the entry `CCOC(=O)CCNC(=O)N1CCC(CCOc2ccccc2)(C(=O)OCC)CC1` , answer whether its hERG current change (%, negative = inhibition) at 10uM meets or surpasses -20%. true

Given the entry `O=c1c2ccccc2nc(/C=C/c2ccccn2)n1-c1ccccc1` , answer whether its hERG current change (%, negative = inhibition) at 10uM meets or surpasses -20%. true

Given the entry `CCOc1ccc(C(=O)Nc2cccc(C)n2)cc1` , answer whether its hERG current change (%, negative = inhibition) at 10uM meets or surpasses -20%. true

Given the entry `O=S(=O)(Nc1ncccn1)c1ccc(NC(=S)NCc2cccnc2)cc1` , answer whether its hERG current change (%, negative = inhibition) at 10uM meets or surpasses -20%. true

Given the entry `COC(=O)c1sc(-c2ccc(Cl)cc2)cc1N` , answer whether its hERG current change (%, negative = inhibition) at 10uM meets or surpasses -20%. false

###

TARGET_DESC: human ether-à-go-go-related gene (hERG) potassium channel (human);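 also: peak tail current of the secondary pulse compared with the same well before compound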
RUN_DESCRIPTION: primary screen, population patch clamp on CHO cells stably expressing hERG; higher = less effect of the substance
In all, about 310,000 compounds went through this assay and about 14,000 (4.5%) showed an effect of 50% or more. Effects have a minus sign here. What follows is part of a selection rich in strong results, with near analogues and random picks from the rest.
MEASURE_NAME: hERG current change (%, negative = inhibition) at 10uM (%)
# number only, unit % dropped from output

// below: answered compounds
# query: hERG current change (%, negative = inhibition) at 10uM | item `Br.CC(C)(C)C(=O)CN1C2=NCCN2c2ccccc21` | system: human ether-à-go-go-related gene (hERG) potassium channel (human) -32.1

# query: hERG current change (%, negative = inhibition) at 10uM | item `O=C(NCc1ccccc1)c1ccc(N2CCC3(CC2)CC(c2ccc(Cl)cc2)=NO3)c([N+](=O)[O-])c1` | system: human ether-à-go-go-related gene (hERG) potassium channel (human) 11.6

Moving on to the next compound.
# query: hERG current change (%, negative = inhibition) at 10uM | item `CCn1ncc(Cl)c1C(=O)Nc1ccc2c(c1)CCC2` | system: human ether-à-go-go-related gene (hERG) potassium channel (human) 3.85

###

Listed here are compounds together with their documented hERG current change (%, negative = inhibition) at 10uM.
TARGET_DESC: human ether-à-go-go-related gene (hERG) potassium channel (human);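 also: peak tail current of the secondary pulse compared with the same well before compound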
RUN_DESCRIPTION: primary screen, population patch clamp on CHO cells stably expressing hERG; higher = less effect of the substance
Out of some 310,000 compounds screened, about 14,000 (4.5%) showed an effect of 50% or more. The effect is printed as a negative number. What follows is part of a selection rich in strong results, with near analogues and random picks from the rest.
# number only, unit % dropped from output

Can you look up the measured hERG current change (%, negative = inhibition) at 10uM of `COc1ccc(S(=O)(=O)N2CCN(Cc3cc(=O)n4ccccc4n3)CC2)cc1` for me? -31.4

Can you look up the measured hERG current change (%, negative = inhibition) at 10uM of `CCCOc1ccc(C(C)=O)cc1CSCCC#N` for me? -1.08

Can you look up the measured hERG current change (%, negative = inhibition) at 10uM of CCOCCCN(C(=O)Cn1nnc(-c2ccc(OC)c(OC)c2)n1)C(C(=O)NCC1CCCO1)c1ccc(F)cc1 (stereo not drawn) for me? -12.8

Can you look up the measured hERG current change (%, negative = inhibition) at 10uM of `CCOC(=O)c1sc(=NC(=O)c2ccc(OC(C)C)cc2)n(C)c1C` for me? 10.8

Can you look up the measured hERG current change (%, negative = inhibition) at 10uM of COCCNC(=O)C(OC(=O)C1=Cc2ccccc2OC1)C(C)C (stereo not drawn) for me? 10.3

Can you look up the measured hERG current change (%, negative = inhibition) at 10uM of COc1ccc(S(=O)(=O)N(CC(C)C)C2CCS(=O)(=O)C2)cc1OC (stereo not drawn) for me? 4.62

These entries and their values trace back to paper PMC4336329.
